Biological target: mouse TMEM16A mutant N546A (Mus musculus, UniProt Q8BHY3, N546A)
Construct: expressed in transfected cells; host or cells: HEK293T
Test: Inside-out patch recording of 1PBC block, mutant N546A
Assay type: cell-based
Conditions: N546A; V 20 mV
endpoint: IC50 (nM)
# value in nM; strip the unit string

Requested read-out: IC50. Entry: N#Cc1c(C(F)(F)F)cc(O)n2c1nc1ccccc12 431

----------
Molecular target: wild-type mouse TMEM16A (Mus musculus, UniProt Q8BHY3)
Construct: expressed in transfected cells; host or cells: HEK293T
Sequence (Q8BHY3 1-960): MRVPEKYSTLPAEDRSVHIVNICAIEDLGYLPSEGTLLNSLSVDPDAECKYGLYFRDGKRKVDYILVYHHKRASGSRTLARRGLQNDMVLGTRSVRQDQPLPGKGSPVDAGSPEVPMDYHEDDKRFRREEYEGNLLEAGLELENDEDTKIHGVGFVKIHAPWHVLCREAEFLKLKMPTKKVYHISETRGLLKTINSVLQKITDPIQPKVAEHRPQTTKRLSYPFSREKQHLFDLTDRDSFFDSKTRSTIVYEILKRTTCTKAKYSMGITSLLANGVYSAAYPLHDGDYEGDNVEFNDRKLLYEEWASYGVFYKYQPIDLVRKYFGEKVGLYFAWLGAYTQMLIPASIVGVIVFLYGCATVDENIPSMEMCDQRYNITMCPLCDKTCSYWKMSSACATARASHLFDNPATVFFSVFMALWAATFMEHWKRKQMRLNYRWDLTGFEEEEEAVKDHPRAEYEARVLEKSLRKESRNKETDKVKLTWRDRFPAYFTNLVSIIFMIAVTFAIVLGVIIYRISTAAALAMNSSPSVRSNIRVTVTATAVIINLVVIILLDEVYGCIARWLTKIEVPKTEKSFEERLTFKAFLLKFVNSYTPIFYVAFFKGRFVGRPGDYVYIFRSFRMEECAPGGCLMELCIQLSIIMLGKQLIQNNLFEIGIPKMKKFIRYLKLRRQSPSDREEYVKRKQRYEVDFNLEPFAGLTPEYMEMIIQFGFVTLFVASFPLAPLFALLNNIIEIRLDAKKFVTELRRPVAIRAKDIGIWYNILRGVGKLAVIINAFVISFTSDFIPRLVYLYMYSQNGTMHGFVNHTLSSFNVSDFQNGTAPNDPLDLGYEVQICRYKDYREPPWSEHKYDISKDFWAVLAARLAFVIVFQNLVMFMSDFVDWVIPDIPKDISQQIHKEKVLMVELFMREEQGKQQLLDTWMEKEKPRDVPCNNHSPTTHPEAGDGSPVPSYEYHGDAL
Assay: Inside-out patch recording of 1PBC block, wild-type TMEM16A
Format: cell-based
Conditions: 0 mV; 2 µM Ca2+
endpoint: pIC50
Please note pIC50 is a logarithmic value: minus log10 of concentration in mol/L. Answer with that number alone.

Please state recorded pIC50 (tested on wild-type mouse TMEM16A (Mus musculus, UniProt Q8BHY3)) of N#Cc1c(C(F)(F)F)cc(O)n2c1nc1ccccc12 5.36

Measured values drawn from paper PMC9120017 for this set.
